- Test protocol: Rate and extent of dissolution in No. 1 and No. 2 Heating Oils at 25° C. (colorimetric)
- Type: physicochemical
- Run parameters: No. 2 Fuel Oil, 1 Minute, 25° C., aminoazotoluene dyes (Table 7)
Observation type: Percent Dissolved (%)

[P] CCCCCCCCCCCCNc1ccc2ccccc2c1N=Nc1ccc(N=Nc2ccccc2C)cc1C [Example 41]
[Q] CCCCCCCNc1ccc2ccccc2c1N=Nc1ccc(N=Nc2ccccc2C)cc1C [Example 36]
Req: // max by Percent Dissolved over [ P , Q ] Label of pick, please.
Resp: P
(P: 4.48%, Q: 1.77%)

[I] CCOCCOCCCNc1ccc2ccccc2c1N=Nc1ccc(N=Nc2ccccc2C)cc1C [Example 35]
[II] Cc1ccccc1N=Nc1ccc(N=Nc2c(NCCOCCO)ccc3ccccc23)c(C)c1 [Example 32]
[III] CCCCC(CC)COCCCNc1ccc2ccccc2c1N=Nc1ccc(N=Nc2ccccc2C)cc1C (stereo not drawn) [Example 7]
[IV] Cc1ccccc1N=Nc1ccc(N=Nc2c(NC3CCCCC3)ccc3ccccc23)c(C)c1 [Example 34]
[V] CCCCCCCCNc1ccc2ccccc2c1N=Nc1ccc(N=Nc2ccccc2C)cc1C [Example 37]
Req: Order the records so the highest Percent Dissolved appears first and the lowest last. Please write the labels in the order that was asked for.
Resp: III, I, V, IV, II

[A] CCCCNc1ccc2ccccc2c1N=Nc1ccc(N=Nc2ccccc2C)cc1C [Example 30]
[B] COCCCNc1ccc2ccccc2c1N=Nc1ccc(N=Nc2ccccc2C)cc1C [Example 31]
[C] CCCCCCNc1ccc2ccccc2c1N=Nc1ccc(N=Nc2ccccc2C)cc1C [Example 33]
Req: Order the records so the highest Percent Dissolved appears first and the lowest last. Please write the labels in the order that was asked for.
Resp: B, C, A

[I] CCNc1ccc2ccccc2c1N=Nc1ccc(N=Nc2ccccc2C)cc1C [Example 29]
[II] CCCCCCCCCCNc1ccc2ccccc2c1N=Nc1ccc(N=Nc2ccccc2C)cc1C [Example 39]
Req: Consider entries I and II . Which has the numerically lower Percent Dissolved? Label of pick, please.
Resp: I
(I: 0.29%, II: 1.30%)

Ref: patent US4000985A
